Measured values drawn from paper doi:10.1101/2025.05.09.652710v1 for this set.

Molecular target: HGFA (Homo sapiens, UniProt Q04756)
Sequence (Q04756 373-655): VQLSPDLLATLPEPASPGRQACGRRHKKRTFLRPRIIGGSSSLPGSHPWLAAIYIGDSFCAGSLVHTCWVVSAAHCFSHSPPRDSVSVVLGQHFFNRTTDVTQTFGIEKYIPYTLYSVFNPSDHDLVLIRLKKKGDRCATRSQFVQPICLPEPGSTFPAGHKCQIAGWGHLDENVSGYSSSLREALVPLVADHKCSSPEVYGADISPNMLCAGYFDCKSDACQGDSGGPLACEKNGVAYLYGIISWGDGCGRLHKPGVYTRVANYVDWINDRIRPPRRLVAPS
# Lookup of reported pIC50 keyed by entry
The read-out pIC50 is expressed as -log10 of concentration in moles per litre.

Previously resolved entries follow.
pIC50 on HGFA (Homo sapiens, UniProt Q04756) for N=C(N)NCCC[C@H](NC(=O)[C@H](Cc1ccccc1)NC(=O)[C@H](CCC(N)=O)NS(=O)(=O)c1ccccc1)C(=O)c1nc2ccccc2s1 is 7.77

pIC50 on HGFA (Homo sapiens, UniProt Q04756) for CC[C@H](C)[C@H](NC(C)=O)C(=O)N[C@@H](CCSC)C(=O)N[C@@H](Cc1ccccc1)C(=O)N[C@H](CCCNC(=N)N)C(=O)c1nc2ccccc2s1 is 6.63

Here's the next entry for you.
pIC50 on HGFA (Homo sapiens, UniProt Q04756) for CC[C@H](C)[C@H](NC(C)=O)C(=O)N[C@H](C(=O)N[C@@H](Cc1ccccc1)C(=O)N[C@@H](CCCNC(=N)N)C(=O)c1nc2ccccc2s1)[C@@H](C)O is 6.74

---

Molecular target: Factor Xa (Homo sapiens)
Sequence (P00742 235-488 limits assumed): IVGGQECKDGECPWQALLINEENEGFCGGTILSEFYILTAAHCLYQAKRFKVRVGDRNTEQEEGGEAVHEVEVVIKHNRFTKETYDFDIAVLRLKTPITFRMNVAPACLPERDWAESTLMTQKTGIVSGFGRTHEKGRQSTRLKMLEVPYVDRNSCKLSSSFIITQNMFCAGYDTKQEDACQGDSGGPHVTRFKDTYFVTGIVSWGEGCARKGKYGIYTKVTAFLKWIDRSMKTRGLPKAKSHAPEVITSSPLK
Sequence (P00742 41-179 partner limits assumed): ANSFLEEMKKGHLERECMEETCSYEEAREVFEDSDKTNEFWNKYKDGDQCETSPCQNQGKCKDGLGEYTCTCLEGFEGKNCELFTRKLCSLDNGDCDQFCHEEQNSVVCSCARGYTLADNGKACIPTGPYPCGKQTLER
reported_endpoint: IC50 (nM)
I only need the number, in nM, no unit after it.

Previously resolved entries follow.
The measured IC50 associated with CC[C@H](C)[C@H](NC(C)=O)C(=O)N[C@@H](CCC(N)=O)C(=O)N[C@@H](CO)C(=O)N[C@@H](CCCNC(=N)N)C(=O)c1nc2ccccc2s1 [MM3177, Ac-IQSR-kbt] reads 1730

The measured IC50 associated with CC[C@H](C)[C@H](NC(C)=O)C(=O)N[C@@H](CCC(N)=O)C(=O)N[C@@H](C)C(=O)N[C@@H](CCCNC(=N)N)C(=O)c1nc2ccccc2s1 [MM3178, Ac-IQAR-kbt] reads 170

The measured IC50 associated with CC[C@H](C)[C@H](NC(C)=O)C(=O)N[C@@H](CCC(N)=O)C(=O)N[C@@H](Cc1c[nH]c2ccccc12)C(=O)N[C@@H](CCCNC(=N)N)C(=O)c1nc2ccccc2s1 [MM3187, Ac-IQWR-kbt] reads 129

Here's the next entry for you.
The measured IC50 associated with CC[C@H](C)[C@H](NC(C)=O)C(=O)N[C@@H](CCC(N)=O)C(=O)N[C@@H](Cc1ccccc1)C(=O)N[C@@H](CCCNC(=N)N)C(=O)c1nc2ccccc2s1 [MM3116, Ac-IQFR-kbt] reads 792

---

// UniProt Q04756 IC50 records
I only need the number, in nM, no unit after it.

Previously resolved entries follow.
IC50 on UniProt Q04756 for CS(=O)(=O)N[C@@H](CCC(N)=O)C(=O)N[C@@H](Cc1ccccc1)C(=O)N[C@@H](CCCNC(=N)N)C(=O)c1nc2ccccc2s1 [MF1099, MeSO2-QFR-kbt, reference compound] is 341

IC50 on UniProt Q04756 for CC[C@H](C)[C@H](NC(C)=O)C(=O)N[C@@H](CCC(N)=O)C(=O)N[C@H](C(=O)N[C@@H](CCCNC(=N)N)C(=O)c1nc2ccccc2s1)[C@@H](C)O [MM3186, Ac-IQTR-kbt] is 18400

IC50 on UniProt Q04756 for N=C(N)NCCC[C@H](NC(=O)[C@H](Cc1ccccc1)NC(=O)[C@H](CCC(N)=O)NC(=O)OCc1ccccc1)C(=O)c1nc2ccccc2s1 [ZFH9141, Cbz-QFR-kbt] is 85

Others:
IC50 on UniProt Q04756 for CC[C@H](C)[C@H](NC(C)=O)C(=O)N[C@H](Cc1c[nH]c2ccccc12)C(=O)N[C@@H](Cc1ccccc1)C(=O)N[C@@H](CCCNC(=N)N)C(=O)c1nc2ccccc2s1 [MM4038, Ac-IdWFR-kbt] is 66
